- measured_target: T1, recombinant CD3D&E protein (human CD3-his tag) (human, UniProt P04234 22-105; P07766 23-126, limits assumed)
- T1 construct: Analyte in Biacore; also called CD3D&E-His; CD3d&ε-His
- T1 sequence (P04234 22-105 limits assumed, chain 1 of 2): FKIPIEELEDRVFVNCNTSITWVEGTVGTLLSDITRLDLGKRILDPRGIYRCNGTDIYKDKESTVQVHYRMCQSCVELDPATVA
- T1 sequence (P07766 23-126 limits assumed, chain 2 of 2): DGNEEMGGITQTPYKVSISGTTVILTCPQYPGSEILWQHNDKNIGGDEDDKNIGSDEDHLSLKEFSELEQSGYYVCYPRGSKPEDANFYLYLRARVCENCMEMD
- experiment_description: SPR Biacore, Ab captured on Protein A
This section presents binders with their documented kon values.
Please report the result as a number followed by the unit.

Problem: Fill in: kon of 192A7B9 chimeric mAb (antibody, V domains shown, Chimeric mAb) VH: QVQLKESGPGLVQPSQTLSLNCTVSGFSLTSYNVHWVRQPPGKGLEWMGRMRYNGDTSYNSALKSRLSISRDTSKNQVFLKMNSLQTDDTGTYYCTRGPRGGYYSALFDYWGQGVMVTVSS VL: DIQMTQSPSFLSASVGDRVTINCKASQNINRYLNWYQQKLGDAPKVLISIANSLQTGIPSRFSGSGSGTDFTLTISSLQPEDVATYFCLQHNSWYTFGAGTKLELK is ___
Solution: 69700 M⁻¹ s⁻¹

Problem: Can you handle 155A9B1 chimeric mAb (antibody, V domains shown, Chimeric mAb) VH: QVQLKESGPGLVQPSQTLSLTCTVSGFSLTSYNVHWVRQPPGKGLEWMGRVRYNGDTSYNSALKSRLSISRDTSKNQAFLKMNSLQIDDTGTYYCTRGPYGGSSEPLFDYWGQGVMVTVSS VL: DIKMTQSPSFLSASVGDRVTINCKASQNINKYLNWFQQKLGEAPRLLIYTTNNLQTGIPSRFSGSGSGTDFTLTISSLQPEDVATYFCLQHNSGYTFGAGTKLELK next?
Solution: 57200 M⁻¹ s⁻¹

Problem: Can you handle 153A6B1 chimeric mAb (antibody, V domains shown, Chimeric mAb of the hybridoma clone; also called 153A6B1C8) VH: QVQLKESGPGLVQPSQTLSLTCTVSGFSLTSYNIHWVRQPPGKGLEWMGRIRYNGDTSYNSALKSRLSISRDTSKNQVFLKMSSLQTDDTGTYYCTRGPYGGSREPLFDYWGQGVMVTVSS VL: DIKMTQSPSFLSAAVGDRVTINCKTSQNINKYLNWFQQKLGAAPKLLIYTTNNLQTGIPSRFSGSGSGTDFTLTISSLQPEDVATYFCLQHGSGYTFGAGTKLELK next?
Solution: 79900 M⁻¹ s⁻¹

Problem: Can you handle SP34 monoclonal antibody (antibody, human IgG1, lambda, N297A, V domains shown, also called SP34 (Biointron, B6762)) VH: EVQLVESGGGLVQPKGSLKLSCAASGFTFNTYAMNWVRQAPGKGLEWVARIRSKYNNYATYYADSVKDRFTISRDDSQSILYLQMNNLKTEDTAMYYCVRHGNFGNSYVSWFAYWGQGTLVTVSA VL: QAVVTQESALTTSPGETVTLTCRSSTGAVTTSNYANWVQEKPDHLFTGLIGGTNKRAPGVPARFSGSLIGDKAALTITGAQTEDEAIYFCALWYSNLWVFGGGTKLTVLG next?
Solution: 424000 M⁻¹ s⁻¹
